Reference for the values: patent US20220370440A1

Molecular target: EGFR Exon 20 INSNPH Ba/F3 (Homo sapiens, UniProt P00533, DUP771-773, cells depend on it)
Sequence (P00533 with tags, fused parts or gaps DUP771-773): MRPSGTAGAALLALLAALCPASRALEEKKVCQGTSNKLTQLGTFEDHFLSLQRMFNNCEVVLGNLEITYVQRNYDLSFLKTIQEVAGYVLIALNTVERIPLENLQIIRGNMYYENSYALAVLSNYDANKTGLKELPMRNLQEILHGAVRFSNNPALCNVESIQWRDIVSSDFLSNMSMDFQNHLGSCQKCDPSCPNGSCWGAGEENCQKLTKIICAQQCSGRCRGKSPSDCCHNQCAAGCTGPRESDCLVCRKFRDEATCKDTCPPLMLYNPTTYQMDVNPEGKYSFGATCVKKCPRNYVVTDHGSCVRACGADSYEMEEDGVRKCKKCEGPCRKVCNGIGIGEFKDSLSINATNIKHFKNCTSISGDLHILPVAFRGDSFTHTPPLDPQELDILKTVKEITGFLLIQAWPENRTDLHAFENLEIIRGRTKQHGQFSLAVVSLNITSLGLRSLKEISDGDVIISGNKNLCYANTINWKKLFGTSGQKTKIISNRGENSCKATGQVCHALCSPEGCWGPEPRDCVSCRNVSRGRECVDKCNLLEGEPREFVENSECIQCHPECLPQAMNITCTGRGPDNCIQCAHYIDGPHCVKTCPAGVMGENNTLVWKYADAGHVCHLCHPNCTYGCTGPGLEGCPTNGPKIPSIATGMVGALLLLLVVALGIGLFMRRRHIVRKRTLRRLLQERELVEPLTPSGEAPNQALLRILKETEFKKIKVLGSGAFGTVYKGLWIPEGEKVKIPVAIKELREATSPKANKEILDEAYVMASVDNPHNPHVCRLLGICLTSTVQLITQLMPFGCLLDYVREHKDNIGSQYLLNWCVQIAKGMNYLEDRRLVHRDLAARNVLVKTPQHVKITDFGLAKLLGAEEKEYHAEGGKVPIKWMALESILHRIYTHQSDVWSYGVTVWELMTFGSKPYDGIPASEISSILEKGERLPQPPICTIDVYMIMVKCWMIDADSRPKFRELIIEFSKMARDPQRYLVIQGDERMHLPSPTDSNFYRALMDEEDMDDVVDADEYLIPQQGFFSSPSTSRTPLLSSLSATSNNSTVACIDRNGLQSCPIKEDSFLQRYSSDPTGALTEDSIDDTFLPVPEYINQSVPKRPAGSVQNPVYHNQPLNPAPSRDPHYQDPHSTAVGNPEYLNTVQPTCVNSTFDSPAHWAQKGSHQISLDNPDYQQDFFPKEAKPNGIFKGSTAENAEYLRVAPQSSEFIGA
Assay: EGFR Exon 20 INSNPH Ba/F3 CellTiter-Glo
Format: cell-based
Settings: CellTiter-Glo, 72 h, read-out: EGFR Exon 20 INSNPH Ba/F3 CTG IC50
# GI50 per record follows

Study these solved cases before continuing.
C=CC(=O)Nc1cc(-c2c(-c3ccc(N4CCN(C)CC4)cc3)[nH]c3ncc(C(=O)NCc4cccc(S(N)(=O)=O)c4)cc23)ccc1C [Example 126]: > 10000 nM
C=CC(=O)Nc1cc(-c2c(-c3ccc(N4CCN(C(C)=O)CC4)cc3)[nH]c3ncc(C(=O)OC(C)C)cc23)ccc1C [Example 162]: 500 to 1000 nM
C=CC(=O)N1CCCc2ccc(-c3c(-c4ccc(N5CCN(C)CC5)nc4)[nH]c4nccc(Cl)c34)cc21 [Example 93]: 1000 to 10000 nM
C=CC(=O)Nc1cc(-c2c(-c3ccc(N4CCN(C)CC4)cc3)[nH]c3ncc(CC(=O)OC(C)C)cc23)ccc1C [Example 190, 2,2,2-trifluoroacetate]: 100 to 500 nM
C=CC(=O)Nc1cc(-c2c(-c3cccc(C(=O)N4CCC5(CC4)CN(C)C5)c3)[nH]c3nccc(Cl)c23)ccc1C [Example 53]: 1000 to 10000 nM
C=CC(=O)Nc1cc(-c2c(-c3ccc(N4CCN(C)CC4)cc3)[nH]c3ncc(C(=O)NCC4CCN(C)CC4)cc23)ccc1C [Example 129]: > 10000 nM
C=CC(=O)N1CCCc2ccc(-c3c(-c4ccc(N5CCN(C)CC5)cc4)[nH]c4nccc(Cl)c34)cc21 [Example 86, 2,2,2-trifluoroacetate]: 500 to 1000 nM
C=CC(=O)Nc1cc(-c2c(-c3ccc(N(C)CCN(C)C)cc3)[nH]c3ncc(C(=O)O)cc23)ccc1C [Example 153, 2,2,2-trifluoroacetate]: > 10000 nM

Query: Requested field: GI50. Item: C=CC(=O)Nc1cc(-c2c(-c3cccc(CN4CCN(C)CC4)c3)[nH]c3nccc(OC)c23)ccc1C [Example 76]
Reply: 100 to 500 nM

Query: Record request: GI50 value, item C=CC(=O)Nc1cc(-c2c(-c3ccc(OCCN(C)C)cc3)[nH]c3ncc(C(=O)OC(C)C)cc23)ccc1C [Example 159]
Reply: 100 to 500 nM

---

pIC50: −log10 of the molar value.
Record: pIC50 reported on EGFR wt (Homo sapiens, UniProt P00533).
Sequence (P00533 25-1210): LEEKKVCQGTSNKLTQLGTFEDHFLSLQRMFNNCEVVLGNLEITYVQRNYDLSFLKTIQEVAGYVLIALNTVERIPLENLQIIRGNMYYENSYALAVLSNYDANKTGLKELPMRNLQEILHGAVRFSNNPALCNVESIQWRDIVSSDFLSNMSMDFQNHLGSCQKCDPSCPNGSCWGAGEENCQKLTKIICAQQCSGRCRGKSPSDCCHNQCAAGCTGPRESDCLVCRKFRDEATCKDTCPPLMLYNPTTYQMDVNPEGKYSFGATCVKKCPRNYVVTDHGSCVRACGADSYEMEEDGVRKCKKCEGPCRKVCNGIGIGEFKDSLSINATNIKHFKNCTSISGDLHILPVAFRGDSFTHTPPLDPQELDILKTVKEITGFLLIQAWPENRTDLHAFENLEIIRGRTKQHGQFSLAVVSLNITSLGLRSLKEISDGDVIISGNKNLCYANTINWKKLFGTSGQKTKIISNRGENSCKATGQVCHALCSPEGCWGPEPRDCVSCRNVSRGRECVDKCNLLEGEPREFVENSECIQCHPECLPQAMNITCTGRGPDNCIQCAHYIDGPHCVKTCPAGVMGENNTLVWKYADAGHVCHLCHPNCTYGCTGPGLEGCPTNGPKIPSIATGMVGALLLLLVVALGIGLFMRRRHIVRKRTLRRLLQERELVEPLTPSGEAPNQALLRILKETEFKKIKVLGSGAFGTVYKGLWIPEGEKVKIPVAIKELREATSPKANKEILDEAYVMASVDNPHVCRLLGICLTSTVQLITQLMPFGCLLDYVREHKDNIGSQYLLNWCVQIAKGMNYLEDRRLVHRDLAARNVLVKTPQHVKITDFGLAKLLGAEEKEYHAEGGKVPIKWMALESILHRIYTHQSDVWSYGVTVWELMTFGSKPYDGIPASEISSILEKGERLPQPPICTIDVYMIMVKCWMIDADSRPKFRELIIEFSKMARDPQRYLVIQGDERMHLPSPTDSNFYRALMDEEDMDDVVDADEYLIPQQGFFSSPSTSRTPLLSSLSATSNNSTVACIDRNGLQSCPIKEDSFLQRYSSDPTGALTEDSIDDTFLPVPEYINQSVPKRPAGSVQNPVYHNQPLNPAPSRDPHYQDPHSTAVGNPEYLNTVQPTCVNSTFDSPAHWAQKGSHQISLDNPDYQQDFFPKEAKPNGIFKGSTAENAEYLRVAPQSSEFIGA

Recorded results for 2 compounds are shown here.
C=CC(=O)Nc1cc(-c2c(-c3ccnc(N4CCN(C)CC4)c3)[nH]c3ncc(C(=O)OC(C)C)cc23)ccc1C [Example 156, 2,2,2-trifluoroacetate]: ≥ 7.00
C=CC(=O)N1CCOc2ccc(-c3c(-c4ccc(N5CCN(C(C)C)CC5)cc4)[nH]c4nccc(Cl)c34)cc21: ≥ 7.00

Now for a further compound.
Query: Form field: pIC50 recorded for C=CC(=O)Nc1cc(-c2c(-c3cnc(N4CCN(C)CC4)nc3)[nH]c3ncc(C(=O)OC(C)C)cc23)ccc1C with EGFR wt (Homo sapiens, UniProt P00533) (enter value)
Reply: ≥ 7.00

---

Molecular target: EGFR T790ML858R (Homo sapiens, UniProt P00533, L858R/T790M)
Sequence (P00533 25-1210 T790M/L858R): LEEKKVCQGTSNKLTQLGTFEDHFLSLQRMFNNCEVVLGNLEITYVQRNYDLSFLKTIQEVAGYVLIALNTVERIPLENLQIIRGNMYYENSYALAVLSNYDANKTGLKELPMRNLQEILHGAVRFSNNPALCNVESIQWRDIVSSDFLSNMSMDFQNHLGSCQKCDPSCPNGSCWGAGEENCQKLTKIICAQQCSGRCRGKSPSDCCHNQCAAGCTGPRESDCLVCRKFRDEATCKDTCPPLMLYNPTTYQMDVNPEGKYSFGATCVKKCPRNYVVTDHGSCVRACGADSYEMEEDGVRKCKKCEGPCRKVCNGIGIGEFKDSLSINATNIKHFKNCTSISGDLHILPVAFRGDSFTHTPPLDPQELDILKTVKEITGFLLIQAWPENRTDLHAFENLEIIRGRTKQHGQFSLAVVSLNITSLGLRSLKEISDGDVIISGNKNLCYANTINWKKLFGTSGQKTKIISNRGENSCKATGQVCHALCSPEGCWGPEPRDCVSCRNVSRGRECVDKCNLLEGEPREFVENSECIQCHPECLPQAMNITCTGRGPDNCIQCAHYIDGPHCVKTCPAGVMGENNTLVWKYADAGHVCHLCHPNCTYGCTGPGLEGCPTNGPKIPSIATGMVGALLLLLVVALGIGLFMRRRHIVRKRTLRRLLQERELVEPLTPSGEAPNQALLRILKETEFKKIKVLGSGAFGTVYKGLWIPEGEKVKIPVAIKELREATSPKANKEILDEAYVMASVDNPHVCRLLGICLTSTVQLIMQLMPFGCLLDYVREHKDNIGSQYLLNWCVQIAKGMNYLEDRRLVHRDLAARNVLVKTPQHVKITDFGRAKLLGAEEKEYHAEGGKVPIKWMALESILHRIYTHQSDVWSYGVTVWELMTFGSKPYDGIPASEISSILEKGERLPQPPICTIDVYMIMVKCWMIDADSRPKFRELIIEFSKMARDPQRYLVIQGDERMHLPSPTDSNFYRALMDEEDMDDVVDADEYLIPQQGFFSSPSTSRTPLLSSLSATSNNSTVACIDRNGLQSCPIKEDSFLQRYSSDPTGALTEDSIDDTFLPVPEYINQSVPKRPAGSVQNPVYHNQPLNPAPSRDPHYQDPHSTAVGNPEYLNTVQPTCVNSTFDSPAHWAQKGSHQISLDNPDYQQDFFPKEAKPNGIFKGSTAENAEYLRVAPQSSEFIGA
Assay: EGFR T790ML858R Lance assay
Recorded IC50 values for a group of compounds are listed next.

Guide cases for IC50, answers given:
C=CC(=O)Nc1cc(-c2c(-c3cccc(C(=O)NC4CCN(Cc5ccccc5)CC4)c3)[nH]c3nccc(Cl)c23)ccc1C: ≤ 100 nM
C=CC(=O)Nc1cc(-c2c(-c3ccc(N4CCN(C)CC4)cc3)[nH]c3ncc(C(=O)NCc4cccnc4)cc23)ccc1C: ≤ 100 nM
C=CC(=O)Nc1cc(-c2c(-c3cccc(OCCCN(C)C)c3)[nH]c3ncc(C(=O)OC(C)C)cc23)ccc1C: ≤ 100 nM
C=CC(=O)Nc1cc(-c2c(-c3ccc(C4CCNCC4)cc3)[nH]c3nccc(Cl)c23)ccc1C: ≤ 100 nM
C=CC(=O)Nc1cc(-c2c(-c3ccc(C(=O)N4CCOCC4)cc3)[nH]c3nccc(Cl)c23)ccc1C: ≤ 100 nM
C=CC(=O)Nc1cc(-c2c(-c3ccc(CN4CCOCC4)cc3)[nH]c3nccc(Cl)c23)ccc1C: ≤ 100 nM
C=CC(=O)N1CCc2ccc(-c3c(-c4ccnc(N5CCN(C)CC5)c4)[nH]c4nccc(Cl)c34)cc21: ≤ 100 nM
C=CC(=O)Nc1cc(-c2c(-c3ccc(N4CCN(C)CC4)cc3)[nH]c3ncc(CC(=O)OC)cc23)ccc1C: ≤ 100 nM
C=CC(=O)Nc1cc(-c2c(-c3ccc(N4CCN(C)CC4)cc3)[nH]c3ncc(C(=O)OC4CCCC4)cc23)ccc1C: ≤ 100 nM
C=CC(=O)N1CCCc2ccc(-c3c(-c4cccc(OCCN5CCCC5)c4)[nH]c4nccc(Cl)c34)cc21: ≤ 100 nM

Query: Form entry - test system: EGFR T790ML858R (Homo sapiens, UniProt P00533, L858R/T790M); read-out: IC50; compound: C=CC(=O)Nc1cc(-c2c(-c3ccc(N4CCN(CC)CC4)cc3)[nH]c3ncc(C(=O)OC(C)C)cc23)ccc1C
Reply: ≤ 100 nM

Query: Provide the documented IC50 with EGFR T790ML858R (Homo sapiens, UniProt P00533, L858R/T790M) as the system for C=CC(=O)Nc1cc(-c2c(-c3ccc(N4CCN(C)CC4)cc3)[nH]c3ncc(OCC)cc23)ccc1C [Example 193, 2,2,2-trifluoroacetate]
Reply: ≤ 100 nM

Query: Reported IC50 for EGFR T790ML858R (Homo sapiens, UniProt P00533, L858R/T790M), given C=CC(=O)N1CCOc2ccc(-c3c(-c4ccnc(N5CCN(C)CC5)c4)[nH]c4nccc(Cl)c34)cc21 [Example 98, 2,2,2-trifluoroacetate] ?
Reply: ≤ 100 nM

Query: Hi! What's the reported IC50 for C=CC(=O)Nc1cc(-c2c(-c3ccc(OCCCN(C)C)cc3)[nH]c3nccc(Cl)c23)ccc1C on EGFR T790ML858R (Homo sapiens, UniProt P00533, L858R/T790M)?
Reply: ≤ 100 nM
